Attribution: patent US20230408517A1

Give measured percent blocking for each item. Keep answers brief.
- Assay Target: recombinant SARS-CoV-2 spike S1 RBD (R319-F541), C-terminal 6-His (SARS-CoV-2, UniProt P0DTC2 319-541)
- Protocol Description: flow cytometry, blocking of binding to hACE-2 cells
Numbers only, in %.

Binder	percent blocking (%)
1035240 (antibody, V domains shown) VH: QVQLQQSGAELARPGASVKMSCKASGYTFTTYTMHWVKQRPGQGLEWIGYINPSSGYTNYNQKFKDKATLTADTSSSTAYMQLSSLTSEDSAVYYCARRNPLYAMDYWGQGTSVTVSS VL: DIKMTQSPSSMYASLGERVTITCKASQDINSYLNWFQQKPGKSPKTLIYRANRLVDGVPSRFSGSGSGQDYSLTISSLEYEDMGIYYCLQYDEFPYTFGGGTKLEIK	99.1

-- ask # input binder: 1035419 (antibody, V domains shown) VH: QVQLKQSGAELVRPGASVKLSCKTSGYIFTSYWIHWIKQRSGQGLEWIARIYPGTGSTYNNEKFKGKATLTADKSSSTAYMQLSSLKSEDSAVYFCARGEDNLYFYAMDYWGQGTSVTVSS VL: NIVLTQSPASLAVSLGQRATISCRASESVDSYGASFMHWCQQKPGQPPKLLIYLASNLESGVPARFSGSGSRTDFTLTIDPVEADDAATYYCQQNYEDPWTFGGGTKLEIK ; wanted: its percent blocking
-- reply 90.2
